The reported measurements were obtained from patent US20250270304A1.

Target: T1, Mature Activin A (human, UniProt P08476 311-426)
T1 construct: also called active Activin A; INHBA mature
T1 sequence: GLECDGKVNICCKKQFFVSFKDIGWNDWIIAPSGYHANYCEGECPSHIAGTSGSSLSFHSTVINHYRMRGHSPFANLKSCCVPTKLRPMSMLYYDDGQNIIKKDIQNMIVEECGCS
Test: ELISA, coated antigen, OD450
recorded endpoint: fold-change of OD 450 over negative control (BSA)

[[record]]
binder = "AB428 (antibody, IgG1, V domains shown) VH: EVQLVESGGGLVQPGGSLRLSCAASGFTSSNHWMSWVRQAPGKGLELVASIGPKGLGTYYPDSVKGRFTISRDNAKNSLYLQMNSLRAEDTAVYYCASIRDYGDKKGGSWFDPWGQGTLVTVSS VL: DIVMTQSPLSLPVTPGEPASISCRSSQSLLHSSGYNFLHWYLQKPGQSPQLLIYMATNRASGVPDRFSGSGSGTDFTLKISRVEAEDVGVYYCVQDLHTLPQFGGGTKVEIK"
result = "6.34 fold"

[[record]]
binder = "AB357 (antibody, IgG1, V domains shown) VH: EVQLVQSGAEVKKPGASVKVSCKASGYTFPSHYISWVRQAPGQGLEWMGGMNPITGHTIYAQKLQGRGTMTTDPSTSTAYMELRSLRSDDTAVYYCARDMRYDILPGRSYYYGMDVWGQGTTVTVSS VL: ESALTQPASVSGSPGQSITISCTGTDIRGMSVSWYQQHPGKAPKLMIYEVNQRPSGVSNRFSGSKSGNTASLTISGLQAEDEADYYCAAWDASVAGYVFGGGTKLTVL"
result = "6.99 fold"

